study target: Cellular tumor antigen p53 (Homo sapiens) (UniProt P04637)
Sequence (P04637 whole entry, looked up): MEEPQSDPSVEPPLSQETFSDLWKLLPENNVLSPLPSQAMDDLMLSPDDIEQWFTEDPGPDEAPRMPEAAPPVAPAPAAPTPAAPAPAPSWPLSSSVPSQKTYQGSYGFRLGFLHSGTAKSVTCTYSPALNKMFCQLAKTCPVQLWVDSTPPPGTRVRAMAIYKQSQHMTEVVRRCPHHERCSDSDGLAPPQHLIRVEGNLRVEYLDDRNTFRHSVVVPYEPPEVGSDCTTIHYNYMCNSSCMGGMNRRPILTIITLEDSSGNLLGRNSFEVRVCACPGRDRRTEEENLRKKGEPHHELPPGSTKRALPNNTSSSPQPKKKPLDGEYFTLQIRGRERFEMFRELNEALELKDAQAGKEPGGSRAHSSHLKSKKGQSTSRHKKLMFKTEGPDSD
procedure summary: Primary qHTS for small molecule compounds that upregulate eGFP-tagged delta133p53alpha (in N-terminal) cells. (AID 2060322);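 note: cells pre-induced with doxycycline then dosed without doxycycline; 0% = DMSO vehicle and 100% = reference activator; nearly all actives have a fitted effect of over 75% in size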
reported conditions: NCI-H358 eGFP-delta133p53alpha fluorescence, 24 h; active compounds read high
Records with an inconclusive call do not appear.
Recorded activation values for a group of compounds are listed next.
Expressed in %, but write only the number.

Field: example entries. Status: answers known.
[
  {
    "compound": "FC(F)(F)c1ccc(Nc2nc(-c3c(C(F)(F)F)nc4ccccn34)cs2)cc1",
    "units symbol": "%",
    "activation": -3.82
  },
  {
    "compound": "CC1=C2C[C@@]3(C)C(CCC[C@@H]3C)C(O)C2OC1=O (stereo not given in full)",
    "units symbol": "%",
    "activation": -15.3
  },
  {
    "compound": "COc1ccc(CN2C(=O)C(=O)c3cc(S(=O)(=O)N4CCC[C@H]4COc4cccnc4)ccc32)cc1",
    "units symbol": "%",
    "activation": 19.7
  }
]

For the next question, use this compound.
Give activation; test system Cellular tumor antigen p53 (Homo sapiens) (UniProt P04637); compound CC1=C2C3OC(=O)C(C)C3(O)CCC2(C)CCC1=O (stereo not given) -20.5

----------
Recorded viability values for a group of compounds are listed next.
procedure summary: BET inhibitor-based combinations targeting novel dependencies in MECOM-rearranged (r) AML: SET-2 cell line (AID 2202231);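 note: plate controls were DMSO treated cells for no effect and wells without cells for full effect; nearly all actives have a fitted effect of over 35% in size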
reported conditions: SET-2 AML cells viability, CellTiter-Glo luminescence, 48 h; active compounds read low, concentration not given here
Records with an inconclusive call do not appear. Positions of bridges follow the written chain, without caps; N, C: chain ends. Non-standard residues stand in square brackets, D forms with d. Residues, ends and D or L forms follow the SMILES beside them. ξ: configuration not given here. *: point of attachment. Octanoyl(6-Me) = CCC(C)CCCCC(=O)*; ξThr(3R) = C[C@@H](O)C(N)C(=O)O; dDab = NCC[C@@H](N)C(=O)O; Dab = NCC[C@H](N)C(=O)O
Expressed in %, but write only the number.

Field: example entries. Status: answers known.
[
  {
    "compound": "O=C(O)CCc1ccc(NCc2cccc(Oc3ccccc3)c2)cc1",
    "units symbol": "%",
    "viability": 117
  },
  {
    "compound": "CC(NCCc1ccc(O)cc1)C(O)c1ccc(O)cc1 (centres undefined)",
    "units symbol": "%",
    "viability": 112
  },
  {
    "compound": "O=C(O)CC1CCC(c2ccc(-c3ccc(Nc4ccc(C(F)(F)F)nc4)cn3)cc2)CC1 (centres undefined)",
    "units symbol": "%",
    "viability": 114
  },
  {
    "compound": "CNC(=O)c1ccc2cc(C3(O)CCn4cncc43)ccc2c1 (centres undefined)",
    "units symbol": "%",
    "viability": 115
  },
  {
    "compound": "NC(=O)c1cccnc1",
    "units symbol": "%",
    "viability": 106
  },
  {
    "compound": "CC(C)(F)C[C@H](N[C@@H](c1ccc(-c2ccc(S(C)(=O)=O)cc2)cc1)C(F)(F)F)C(=O)NC1(C#N)CC1",
    "units symbol": "%",
    "viability": 104
  }
]

Determine its reported viability: `COc1ccc(C(=O)C2CCN(CC(=O)N(Cc3nc4c(c(=O)[nH]3)COCC4)CC3CC3)CC2)cc1` 110

Determine its reported viability: CC(=O)SCC(Cc1ccccc1)C(=O)NCC(=O)OCc1ccccc1 (centres undefined) 105

Determine its reported viability: CCC(C)CCCCC(=O)N[C@@H](CCN)C(=O)NC(C(=O)N[C@H](CCN)C(=O)N[C@@H]1CCNC(=O)C([C@@H](C)O)NC(=O)[C@@H](CCN)NC(=O)[C@@H](CCN)NC(=O)[C@@H](CC(C)C)NC(=O)[C@H](Cc2ccccc2)NC(=O)[C@H](CCN)NC1=O)[C@@H](C)O (stereo partly drawn) ({Octanoyl(6-Me)}-[Dab][ξThr(3R)][dDab][dDab][Dab]F[dL][dDab][dDab][ξThr(3R)]; lactam 4-C) 126
